target: Clade B BaL gp120 protein (HIV-1 Clade B, BaL); experiment: BLI (Octet), IgG on anti-hIgG Fc sensor, gp120 analyte, 1:1 fit
Hi there, I'd appreciate the recorded fold (KD vs average of 4 runs of L1A2) for every entry that follows.
# output: number + unit

[[record]]
binder = "Germ18 (antibody, V domains shown) VH: QVQLVQSGAEVKKPGASVKVSCEASGYRFPDYIIHWIRRAPGQGPEWMGWMNPMGGQVNIPWKFQGRVSMTRDTSIETAYMELRGLRSDDTAVYYCVRDRSNGSGKRFESSNWFLDLWGRGTLVTVSS VL: QSALTQPRSVSGSPGQSVTISCTGTHNLVSWCQHQPGRAPKLLIYDFNKRPSGVPDRFSGSGSGGTASLTISGLQDEDDAEYFCWAYEAFGGGTKLTVL"
measured_endpoint = "fold (KD vs average of 4 runs of L1A2)"
result = "1.81 fold"

[[record]]
binder = "Germ12 (antibody, V domains shown) VH: QVDLVQSGAVVKKPGDSVRVSCEAQGYRFPDYIIHWIRRAPGQGPEWMGWMNPMGGQVNIPWKFQGRVSMTRDTSIETAYMDLRGLRSDDTAVYYCVRDRSNGSGKRFESSNWFLDLWGRGTLVTVSS VL: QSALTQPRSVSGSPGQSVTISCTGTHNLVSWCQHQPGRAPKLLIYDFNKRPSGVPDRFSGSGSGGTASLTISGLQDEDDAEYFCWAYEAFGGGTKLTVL"
measured_endpoint = "fold (KD vs average of 4 runs of L1A2)"
result = "1.62 fold"


Turning now to a further binder:
Q. Would you mind telling me what fold (KD vs average of 4 runs of L1A2) value was observed for CysCV (antibody, V domains shown) VH: ADLVQSGAVVKKPGDSVRISCEAQGYRFPDYIIHWIRRAPGQGPEWMGWMNPMGGQVNIPWKFQGRVSMTRDTSIETAFLDLRGLKSDDTAVYYCVRDRSNGSGKRFESSNWFLDLWGRGTAVTIQS VL: QSALTQPRSVSASPGQSVTISCTGTHNLVSWVQHQPGRAPKLLIYDFNKRPSGVPDRFSGSGSGGTASLTITGLQDDDDAEYFCWAYEAFGGGTKLTVL ?
A. 1.52 fold
